# target desc: Ba/F3-TPR-MET-D1228N cells (Homo sapiens, UniProt P08581, D1228N, cells depend on it)
# Construct: fused on or other part: P12270 (Nucleoprotein TPR)
# Sequence (P08581 whole entry D1228N, the tested form may be a part): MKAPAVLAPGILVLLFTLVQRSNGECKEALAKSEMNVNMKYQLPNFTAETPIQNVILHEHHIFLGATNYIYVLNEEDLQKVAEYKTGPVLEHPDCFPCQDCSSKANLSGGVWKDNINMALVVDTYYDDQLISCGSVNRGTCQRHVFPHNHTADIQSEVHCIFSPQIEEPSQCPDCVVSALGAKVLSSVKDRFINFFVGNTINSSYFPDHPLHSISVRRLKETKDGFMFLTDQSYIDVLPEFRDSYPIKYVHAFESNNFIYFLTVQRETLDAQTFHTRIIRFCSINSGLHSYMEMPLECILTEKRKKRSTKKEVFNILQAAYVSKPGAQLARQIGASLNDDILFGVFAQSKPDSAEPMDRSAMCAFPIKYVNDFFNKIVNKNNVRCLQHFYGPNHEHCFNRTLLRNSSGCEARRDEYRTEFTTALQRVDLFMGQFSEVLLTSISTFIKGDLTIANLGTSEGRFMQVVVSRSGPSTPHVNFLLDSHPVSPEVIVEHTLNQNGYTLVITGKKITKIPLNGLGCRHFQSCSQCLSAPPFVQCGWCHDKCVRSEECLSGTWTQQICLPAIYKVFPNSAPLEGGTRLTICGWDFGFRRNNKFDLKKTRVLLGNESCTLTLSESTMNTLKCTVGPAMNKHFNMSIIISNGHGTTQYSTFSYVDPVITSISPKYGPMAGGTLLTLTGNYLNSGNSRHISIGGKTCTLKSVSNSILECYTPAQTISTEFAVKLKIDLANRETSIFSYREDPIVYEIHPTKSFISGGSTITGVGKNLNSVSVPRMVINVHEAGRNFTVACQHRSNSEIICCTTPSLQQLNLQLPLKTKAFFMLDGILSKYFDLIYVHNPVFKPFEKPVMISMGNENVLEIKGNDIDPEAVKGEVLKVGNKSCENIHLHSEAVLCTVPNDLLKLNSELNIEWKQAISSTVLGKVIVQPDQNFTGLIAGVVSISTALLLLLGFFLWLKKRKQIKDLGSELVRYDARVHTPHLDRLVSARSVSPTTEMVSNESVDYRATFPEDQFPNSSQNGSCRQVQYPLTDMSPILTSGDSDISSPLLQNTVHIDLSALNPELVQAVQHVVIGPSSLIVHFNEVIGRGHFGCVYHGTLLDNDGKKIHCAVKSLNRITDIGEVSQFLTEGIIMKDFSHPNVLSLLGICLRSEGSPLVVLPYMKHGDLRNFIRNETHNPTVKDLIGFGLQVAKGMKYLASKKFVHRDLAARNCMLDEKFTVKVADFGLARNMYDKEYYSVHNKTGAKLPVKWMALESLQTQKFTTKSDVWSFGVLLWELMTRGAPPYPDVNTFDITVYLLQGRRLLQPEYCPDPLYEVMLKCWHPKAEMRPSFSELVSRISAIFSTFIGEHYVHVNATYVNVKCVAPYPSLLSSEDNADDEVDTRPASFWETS
# assay summary: CellTiter-Glo Cell Viability Assay, Ba/F3-TPR-MET-D1228N
# condition summary: 72 hours
pEC50: −log10 of the molar value.
property name: pEC50

- molecule: "COCCOc1ccc2c(Oc3c(F)cc(NC(=O)c4nnccc4OC4CC4)cc3F)ccnc2c1 [Example 120]"
  target desc: "Ba/F3-TPR-MET-D1228N cells (Homo sapiens, UniProt P08581, D1228N, cells depend on it)"
  pEC50: "6.00 to 7.00"
- molecule: "CNCCOc1cc2nccc(Oc3c(F)cc(NC(=O)c4cnccc4OC[C@@H](C)F)cc3F)c2cc1OC [Example 61]"
  target desc: "Ba/F3-TPR-MET-D1228N cells (Homo sapiens, UniProt P08581, D1228N, cells depend on it)"
  pEC50: "≥ 7.00"
- molecule: "COc1cc2c(Oc3c(F)cc(NC(=O)c4cnccc4OC)cc3F)ccnc2cc1OCCCN1CCOCC1 [Example 30]"
  target desc: "Ba/F3-TPR-MET-D1228N cells (Homo sapiens, UniProt P08581, D1228N, cells depend on it)"
  pEC50: "≥ 7.00"
- molecule: "COc1cc2c(Oc3c(F)cc(NC(=O)c4c(OCC(F)F)ccnc4F)cc3F)ccnc2cc1OCCO [Example 141]"
  target desc: "Ba/F3-TPR-MET-D1228N cells (Homo sapiens, UniProt P08581, D1228N, cells depend on it)"
  pEC50: "≥ 7.00"

Request: Entry COc1ccncc1C(=O)Nc1cc(F)c(Oc2ccnc3cc(OCCO)ccc23)c(F)c1 [Example 41] needs its pEC50 filled in; supply it.
Result: ≥ 7.00

Request: Indicate its recorded pEC50; the molecule in question is COc1ccncc1C(=O)Nc1cc(F)c(Oc2ccnc3cc(OCCO)c(OC)nc23)c(F)c1 [Example 138]
Result: ≥ 7.00
